Test system: human organs
Experiment: Absorbed doses of radiation, estimates for human organs (OLINDA software)
Settings: human: Total Body
Item-by-item account of radiation dose estimate, Total Body

- molecule: "O=C([O-])CN1CCN(CC(=O)[O-])CCN(CC(=O)N2CCO[C@]3(CC[C@H](C(=O)N[C@@H](Cc4ccc5ccccc5c4)C(=O)NCCCC[C@H](NC(=O)N[C@@H](CCC(=O)O)C(=O)O)C(=O)O)CC3)C2)CCN(CC(=O)[O-])CC1.[68Ga+3] [^68Ga-v]"
  target: "human organs"
  units: "mSv/MBq"
  radiation dose estimate, Total Body: "0.496E−02"
- molecule: "O=C([O-])CN1CCN(CC(=O)[O-])CCN(CC(=O)N2CCO[C@]3(CC[C@H](C(=O)N[C@@H](Cc4ccc5ccccc5c4)C(=O)NCCCC[C@H](NC(=O)N[C@@H](CCC(=O)O)C(=O)O)C(=O)O)CC3)C2)CCN(CC(=O)[O-])CC1.[177Lu+3] [^177Lu-v]"
  target: "human organs"
  units: "mSv/MBq"
  radiation dose estimate, Total Body: "3.07E−02"
- molecule: "O=C([O-])CN1CCN(CC(=O)[O-])CCN(CC(=O)NCC2CCC(C(=O)N[C@@H](Cc3ccc4ccccc4c3)C(=O)NCCCC[C@H](NC(=O)N[C@@H](CCC(=O)O)C(=O)O)C(=O)O)CC2)CCN(CC(=O)[O-])CC1.[68Ga+3] (stereo partly shown) [^68Ga-PSMA-617, reference compound]"
  target: "human organs"
  units: "mSv/MBq"
  radiation dose estimate, Total Body: "3.61E−02"
- molecule: "O=C([O-])CN1CCN(CC(=O)[O-])CCN(CC(=O)NCC2CCC(C(=O)N[C@@H](Cc3ccc4ccccc4c3)C(=O)NCCCC[C@H](NC(=O)N[C@@H](CCC(=O)O)C(=O)O)C(=O)O)CC2)CCN(CC(=O)[O-])CC1.[177Lu+3] (stereo partly shown) [^177Lu-PSMA-617, reference compound]"
  target: "human organs"
  units: "mSv/MBq"
  radiation dose estimate, Total Body: "2.91E−02"
